target-entity: Cytochrome P450 2C19 (Homo sapiens, UniProt P33261)
Sequence (P33261 whole entry): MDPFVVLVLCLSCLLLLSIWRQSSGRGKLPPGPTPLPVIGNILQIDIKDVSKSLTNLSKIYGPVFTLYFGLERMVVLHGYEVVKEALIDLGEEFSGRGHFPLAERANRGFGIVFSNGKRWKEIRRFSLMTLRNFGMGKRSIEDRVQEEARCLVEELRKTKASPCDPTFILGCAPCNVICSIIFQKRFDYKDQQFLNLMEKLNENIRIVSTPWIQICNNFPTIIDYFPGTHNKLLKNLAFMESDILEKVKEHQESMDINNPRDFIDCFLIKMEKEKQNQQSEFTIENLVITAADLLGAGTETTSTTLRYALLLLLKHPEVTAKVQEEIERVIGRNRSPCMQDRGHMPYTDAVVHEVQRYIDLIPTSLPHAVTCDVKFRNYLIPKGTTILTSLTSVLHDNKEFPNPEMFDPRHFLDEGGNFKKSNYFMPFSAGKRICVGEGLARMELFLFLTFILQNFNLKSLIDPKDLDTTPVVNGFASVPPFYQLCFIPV
measurement-notes: Cytochrome panel assay with activity outcomes. Panel member name: p450-cyp2c19 Compounds with AC50 equal or less than 10 uM are considered active
Type: functional
setup-conditions: read-out: AC50
AC50 by entry:
reported-metric: AC50

INSERT INTO assay_data (molecule, measured_result) VALUES
  ('COc1cc(COc2cc(N)c(Cl)cc2C(=O)CCC2CCN(CCNS(C)(=O)=O)CC2)cc(OC)c1', '15.8 µM (inconclusive)'),
  ('COc1ccc2nc3cc(Cl)ccc3c(Nc3ccc(O)c(CN4CCN(C)CC4)c3)c2c1', '2.51 µM (inconclusive)'),
  ('CCC(C)NC(=O)NC(=O)N(C1CCCCC1)S(C)(=O)=O (stereo not given)', '17.8 µM (inconclusive)'),
  ('COc1ccc(Sc2nc3ccccc3n3c(C(F)(F)F)nnc23)cc1', '35.5 µM (inconclusive)'),
  ('CN1CCN([C@@H]2Cc3ccccc3Sc3ccc(Cl)cc32)CC1', '25.1 µM (inconclusive)'),
  ('Cc1oc2c(C)c(O)ccc2c(=O)c1-c1ccc2ccccc2n1', '2.82 µM (inconclusive)'),
  ('COC(=O)[C@@]1(Cc2ccc(OC)cc2)[C@H]2c3cc(C(=O)N4CCCC4)n(Cc4ccc(OC)c(OC)c4)c3C[C@H]2CN1C(=O)c1ccccc1', '15.8 µM (inconclusive)'),
  ('CC(=O)NCCNc1ncnc2ccc(-c3ccccc3C#N)cc12', '10 µM (inconclusive)'),
  ('CS(=O)(=O)Nc1cccc(-c2nccc(NCc3cccs3)n2)c1', '25.1 µM (inconclusive)'),
  ('CCc1c(C(=O)O)[nH]c2ccc(Br)cc12', '11.2 µM (inconclusive)'),
  ('O=C1CC(=O)C(n2cncn2)C(c2cccc(Cl)c2)C1 (stereo not given)', '3.98 µM (inconclusive)'),
  ('FC(F)(F)c1ccc(/C=N/N2CCN(Cc3cccc4ccccc34)CC2)cc1', '11.2 µM (inconclusive)'),
  ('Cc1ccc(C(=O)NCc2ccc(N3CCN(C(=O)OC(C)(C)C)CC3)cc2)cc1', '14.1 µM (inconclusive)'),
  ('CC(C)(C)C(=O)N1CCN(c2ccc([N+](=O)[O-])c(NCC3CCCO3)c2)CC1 (stereo not given)', '25.1 µM (inconclusive)'),
  ('Cc1ccc(Cn2ccc(NC(=O)c3cc4nc(-c5ccco5)cc(C(F)(F)F)n4n3)n2)cc1', '14.1 µM (inconclusive)'),
  ('Clc1ccc(Cl)c(OCc2cc(-c3ccccc3Cl)on2)c1', '0.891 µM (inconclusive)'),
  ('CC(C)=CCC/C(C)=C/CO/N=C1/C[C@@H](O)[C@@H](O)[C@@H]2[C@@H]3C(=O)N(Cc4ccccc4)C(=O)[C@H]3CC[C@H]12', '0.0631 µM (inconclusive)'),
  ('Cc1ccc(-c2ccc(=O)n(CC(=O)NCCN3CCCCC3C)n2)cc1 (stereo not given)', '35.5 µM (inconclusive)'),
  ('CC(C)CC(=O)N1CCC(N2CCN(c3ccccc3)CC2)CC1', '15.8 µM (inconclusive)'),
  ('O=C1/C(=C\c2ccccc2)C[C@@]2(O)[C@H]3Cc4ccc(O)c5c4[C@@]2(CCN3CC2CC2)[C@@H]1O5', '15.8 µM (inconclusive)'),
  ('O=c1cnc2cnc(Oc3cccc(Cl)c3)nc2n1C[C@H]1CCCO1', '39.8 µM (inconclusive)'),
  ('CCCOc1ccc(OCCNC2CCCC2)cc1', '31.6 µM (inconclusive)'),
  ('COc1cccc(C(=O)Nc2ccc(-c3nnc(-c4ccco4)o3)cc2)c1', '2.82 µM (inconclusive)'),
  ('Cc1noc(C)c1-c1cc(NC2CC2)ncn1', '31.6 µM (inconclusive)'),
  ('Cc1ccc(C)c(N(CC(=O)NC2CCCC2)C(=O)c2cc3cc4cccc(C)c4nc3s2)c1', '6.31 µM (inconclusive)');
